- Tested on: DU-145 prostate
- measurementProtocol: NCI-60 one-dose screen, 48 h
- assayConditions: 10 µM unless noted
The panel holds about 83,000 compounds, 20% with a hit somewhere; the sample as a whole holds those more often. The source made the active and inactive calls. The calls were made as follows: active = growth percent below 10; inactive = the rest.
The reply should be one of these categories: 1.0 (active), 0.0 (inactive)

C#Cc1cccc(NC(=O)Nc2cccc(NC(=O)CCl)c2)c1 | 0.0

Challenge: Dear colleague, could you share the recorded outcome for "CN(CCN(C)c1ccc(C(=N)N)cc1)c1ccc(C(=N)N)cc1" when you have a moment?
Response given: 0.0

Challenge: Dear colleague, could you share the recorded outcome for "COc1ccccc1/C=C1\Oc2cc(OCCN3CCCC3)ccc2C1=O" when you have a moment?
Response given: 0.0

All figures here come from PubChem BioAssay (NCI).
